Data provenance is PubChem BioAssay (EPA / NIEHS).

Measurement Notes: BSK_3C_Vis: BioMAP Diversity Plus: 3C Assay for Morphology Visualization (AID 2283025);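 note: fitted both ways so gain or loss versus DMSO counts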;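 for AC50: light microscopy image of cell morphology used as background control; cells imaged 24 h after dosing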
Condition: primary human endothelial cells (HUVEC)
The source made the active and inactive calls. Rule for the calls: active = hit-call score of the fitted dose curve at least 0.9, where 1 is the maximum; inactive = score below 0.9.
Quantity Measured: AC50

As a guide, the following entries are already answered.
> print(dat)
                                   compound   measured.result
1      N#[N+]c1ccc2c(S(=O)(=O)[O-])cccc2c1O          inactive
2                            C=CC=CC=CCCCCC          inactive
3                            O=Nc1ccc(O)cc1          inactive
4                   C=CCOc1c(Br)cc(Br)cc1Br  14.1 µM (active)
5  C#CC1(O)CC[C@H]2[C@@H]3CCC4=CCCC[C@@H]4[C@H]3CC[C@@]21C (some centres not stated)   8.8 µM (active)

Data request: Note down AC50 recorded for c1ccc2c(c1)ccc1ncccc12
Data returned: 38.9 µM (active)

Data request: Note down AC50 recorded for CC1OC1C1CCC2(C)OC2C1 (configuration not stated)
Data returned: inactive

---

Measurement Notes: ATG_TA_CIS: Attagene CIS-FACTORIAL HepG2 Assay for human TA Basal Promoter (AID 2282964)
Condition: HepG2 Attagene CIS-factorial TA basal promoter reporter; actives raise or lower the signal
Active and inactive are the calls of the source. How the source made its calls: active means hit-call score of the fitted dose curve at least 0.9, where 1 is the maximum; inactive means score below 0.9.
# output must be one of yes (1) (active), no (0) (inactive)

Compound	Category Label
CC1(C)[C@H]2CC[C@]1(C)C(=O)C2	no (0)
Cc1ccc(N)c([N+](=O)[O-])c1	no (0)
CC1(C)O[C@@H]2C[C@H]3[C@@H]4C[C@H](F)C5=CC(=O)CC[C@]5(C)[C@H]4[C@@H](O)C[C@]3(C)[C@]2(C(=O)CO)O1	no (0)
O=C(O)CCCCCCCCCC(=O)O	no (0)
CC[C@H]1OC(=O)[C@H](C)[C@@H](O[C@H]2C[C@@](C)(OC)[C@@H](O)[C@H](C)O2)[C@H](C)[C@@H](O[C@@H]2O[C@H](C)C[C@H](N(C)C)[C@H]2O)[C@](C)(O)C[C@@H](C)C(=NOCOCCOC)[C@H](C)[C@@H](O)[C@]1(C)O	no (0)

Data request: // outcome(item) with item = CO[Si](CCC1CCC2OC2C1)(OC)OC (stereo unspecified)
Data returned: no (0)

Data request: // outcome(item) with item = CC=CC(F)(F)C(F)(F)C(F)(F)F
Data returned: no (0)

Data request: // outcome(item) with item = COc1cc(NC(=O)CC(C)=O)c(OC)cc1Cl
Data returned: no (0)

Data request: // outcome(item) with item = CCCCCCCCc1ccc(Nc2ccc(CCCCCCCC)cc2)cc1
Data returned: no (0)

Data request: // outcome(item) with item = O=C(c1ccc(O)cc1)c1ccc(O)cc1O
Data returned: no (0)

Data request: // outcome(item) with item = CC(C)CCCC(C)CC=O (stereo unspecified)
Data returned: no (0)

Data request: // outcome(item) with item = [Cl][Nd]([Cl])[Cl]
Data returned: no (0)

Data request: // outcome(item) with item = CCCCCC/C=C/C=O
Data returned: no (0)

Data request: // outcome(item) with item = CCCCCCCC(C)=O
Data returned: no (0)

---

Target Of Assay: Nuclear receptor subfamily 4 group A member 2 (Homo sapiens)
Measurement Notes: ATG_NURR1_TRANS: Attagene TRANS-FACTORIAL HepG2 Assay for human Nuclear Receptor Related Protein 1 (NURR1) (AID 2282985)
Condition: HepG2 Attagene TRANS reporter, mRNA readout
Results filed as inconclusive are left out. Activity calls are given as the source filed them. Rule for the calls: active = hit-call score of the fitted dose curve at least 0.9, where 1 is the maximum; inconclusive = response in the unintended direction; inactive = score below 0.9.
# output must be one of t (active), f (inactive)

Reference set (5 entries):
> print(dat)
                                   compound                           target.of.assay  category.label
1                  CCCCCC/C=C\CCCCCCCC(=O)O  Nuclear receptor subfamily 4 group A member 2 (Homo sapiens)               f
2  CCCCC(CC)COC(=O)c1ccccc1 (configuration not stated)  Nuclear receptor subfamily 4 group A member 2 (Homo sapiens)               f
3                           C=C(C)C(=O)OCCO  Nuclear receptor subfamily 4 group A member 2 (Homo sapiens)               f
4                        C=C(C)C(=O)OCC(C)C  Nuclear receptor subfamily 4 group A member 2 (Homo sapiens)               f
5                   C=CCOc1c(Br)cc(Br)cc1Br  Nuclear receptor subfamily 4 group A member 2 (Homo sapiens)               t

Data request: // outcome(item) with item = SCCc1cnccn1
Data returned: f

Data request: // outcome(item) with item = COC(=O)C1=C(C)NC(C)=C(C(=O)OCC(C)C)C1c1ccccc1[N+](=O)[O-] (configuration not stated)
Data returned: f

Data request: // outcome(item) with item = OCCCS
Data returned: f

Data request: // outcome(item) with item = COC(=O)c1ccc2cc(C(=O)OC)ccc2c1
Data returned: f

---

System: SERPINA7 (gene 6906)
Measurement Notes: CCTE_GLTED_hTBG: CCTE's human Thyroxine-binding Globulin (TBG) Inhibition Assay, Great Lakes Toxicology and Ecology Division (GLTED) Lab (AID 2284343);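 note: active chemicals lower fluorescence versus DMSO baseline by displacing probe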
Active and inactive are the calls of the source. Rule for the calls: active = hit-call score of the fitted dose curve at least 0.9, where 1 is the maximum; inconclusive = response in the unintended direction; inactive = score below 0.9.
# output must be one of active, inactive

Reference set (7 entries):
> print(dat)
                                   molecule  category.label
1                   CCOC(=O)Cc1cccc2ccccc12          active
2  CC1=NN(c2cc(S(=O)(=O)O)ccc2Cl)C(=O)C1N=Nc1ccccc1 (stereo not drawn)        inactive
3                   CCCCCCCCCCCCCOP(=O)(O)O          active
4          CN(C)c1ccc(N=Nc2ccccc2C(=O)O)cc1          active
5               Oc1ccc(Cl)cc1Cc1cc(Cl)ccc1O          active
6         CC(C)(C)c1ccc(OC(=O)c2ccccc2O)cc1          active
7                CCCCCCCC/C=C\CCCCCCCC(=O)O          active

Data request: // outcome(item) with item = Cc1ccc(C(C)c2ccc(C)c(C)c2)cc1C
Data returned: active

---

Target Of Assay: Cellular tumor antigen p53 (Homo sapiens) (UniProt P04637)
Sequence (P04637 whole entry, looked up): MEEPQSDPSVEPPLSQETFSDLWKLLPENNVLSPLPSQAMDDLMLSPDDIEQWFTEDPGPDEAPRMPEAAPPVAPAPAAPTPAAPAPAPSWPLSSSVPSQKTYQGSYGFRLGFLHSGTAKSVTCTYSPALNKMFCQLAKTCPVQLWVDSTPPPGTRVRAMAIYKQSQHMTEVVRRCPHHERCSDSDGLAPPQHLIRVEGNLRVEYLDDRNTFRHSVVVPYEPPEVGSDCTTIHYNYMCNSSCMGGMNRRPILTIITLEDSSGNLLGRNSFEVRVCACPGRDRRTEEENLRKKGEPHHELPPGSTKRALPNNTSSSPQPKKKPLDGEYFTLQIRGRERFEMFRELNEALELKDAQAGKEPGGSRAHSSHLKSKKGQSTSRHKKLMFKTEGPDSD
Measurement Notes: ATG_p53_CIS: Attagene CIS-FACTORIAL HepG2 Assay for human p53 Transcription Factor (AID 2282994)
Condition: HepG2 p53 cis-element reporter, Attagene mRNA; actives raise or lower the signal
Active and inactive are the calls of the source. The calls were made as follows: active = hit-call score of the fitted dose curve at least 0.9, where 1 is the maximum; inactive = score below 0.9.
# output must be one of active, inactive

> print(dat)
             molecule  category.label
1  C=C(C)C(=O)OCC(C)C        inactive

Data request: // outcome(item) with item = CC(C)(c1cc(Br)c(OCCO)c(Br)c1)c1cc(Br)c(OCCO)c(Br)c1
Data returned: active

Data request: // outcome(item) with item = C=C(C)c1cccc(C(C)(C)N=C=O)c1
Data returned: inactive

Data request: // outcome(item) with item = FC(F)(F)C(=NOCC1OCCO1)c1ccc(Cl)cc1
Data returned: inactive

Data request: // outcome(item) with item = O=S(=O)(O)CC(O)CCl (configuration not stated)
Data returned: inactive

Data request: // outcome(item) with item = COc1c2ccoc2cc2oc(=O)ccc12
Data returned: inactive

Data request: // outcome(item) with item = Cc1cc(O)c(Cl)c(C)c1Cl
Data returned: inactive

---

Measurement Notes: ATG_DR4_LXR_CIS: Attagene CIS-FACTORIAL HepG2 Assay for human Liver X Receptor (LXR), DR4 submotif (AID 2282929)
Condition: HepG2 Attagene DR4 cis-reporter, mRNA transcription; actives raise or lower the signal
Active and inactive are the calls of the source. Rule for the calls: active = hit-call score of the fitted dose curve at least 0.9, where 1 is the maximum; inactive = score below 0.9.
# output must be one of active, inactive

> print(dat)
   compound  category.label
1     COC=O        inactive

Data request: // outcome(item) with item = C=CCCCCCCCCC(=O)OCCCC
Data returned: inactive

Data request: // outcome(item) with item = CC(C)c1ccc2cc(C(C)C)ccc2c1
Data returned: inactive

Data request: // outcome(item) with item = N[C@H]1C(O)O[C@H](CO)[C@H](O)[C@@H]1O (some centres undefined)
Data returned: inactive

Data request: // outcome(item) with item = O=c1[nH]nc(-c2ccc([N+](=O)[O-])o2)o1
Data returned: inactive

Data request: // outcome(item) with item = CCCCCCCCC(=O)OCC
Data returned: inactive

Data request: // outcome(item) with item = CC=C1CC2C=CC1C2 (centres undefined)
Data returned: active

Data request: // outcome(item) with item = CCCCCCCCCCOS(=O)(=O)O
Data returned: active

Data request: // outcome(item) with item = C=C[Si](OC(C)=O)(OC(C)=O)OC(C)=O
Data returned: inactive
